# EC50 listing for each entry below
Target: S1P1 (Homo sapiens (Human))
Experiment: 35S-GTPγS binding, membranes from CHO cells expressing S1P1
Conditions: CHO cell membranes
Response body: numeric value in nM, unit text excluded.

COCc1c(-c2nc(-c3cc(F)ccc3F)no2)cnn1CC(C)C    648
COc1ccccc1-n1ncc(-c2nc(-c3cc(F)ccc3F)no2)c1-c1ccccc1    284
C[C@@H]1CCCC[C@@H]1n1ncc(-c2nc(-c3cc(F)ccc3F)no2)c1-c1ccccc1    8

Q: # lookup: EC50 of CC(C)Cn1ncc(-c2nc(-c3ccc(CN(C)CC(=O)O)cc3)no2)c1-c1ccncc1
A: 837

* * *

Target: S1P3 (Homo sapiens (Human), UniProt Q99500)
Sequence (Q99500 whole entry, species assumed): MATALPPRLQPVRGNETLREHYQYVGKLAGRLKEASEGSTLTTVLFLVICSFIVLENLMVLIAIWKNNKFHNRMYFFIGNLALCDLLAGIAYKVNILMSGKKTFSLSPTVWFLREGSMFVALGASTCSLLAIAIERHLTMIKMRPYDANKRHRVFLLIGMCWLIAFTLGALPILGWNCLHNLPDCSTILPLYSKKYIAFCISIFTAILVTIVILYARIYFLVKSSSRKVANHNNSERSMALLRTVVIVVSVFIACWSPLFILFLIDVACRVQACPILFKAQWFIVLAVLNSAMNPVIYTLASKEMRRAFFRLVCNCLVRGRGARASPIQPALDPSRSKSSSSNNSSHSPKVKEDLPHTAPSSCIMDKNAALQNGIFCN
Assay: 35S-GTPγS binding, membranes from CHO cells expressing S1P3
Conditions: CHO cell membranes
# pEC50 listing for each entry below
On this scale, pEC50 is minus log10 of a concentration expressed in M (mol/L).

For orientation, consider the following solved cases.
C[C@@H]1CCCC[C@@H]1n1ncc(-c2nc(-c3cc(F)ccc3F)no2)c1-c1ccccc1    6.24
CC1CCCCC1n1ncc(-c2nc(-c3cc(F)ccc3F)no2)c1-c1ccncc1 (stereo not shown)    5.79

Q: # lookup: pEC50 of Fc1ccc(F)c(-c2noc(-c3cnn(C4CCCCC4)c3-c3ccccc3)n2)c1
A: 6.85

* * *

Target: S1P1 (Homo sapiens (Human))
Assay: 35S-GTPγS binding, membranes from CHO cells expressing S1P1
Details: CHO cell membranes
# EC50 listing for each entry below
Response body: numeric value in nM, unit text excluded.

Brc1ccc(-c2noc(-c3cnn(C4CCCCC4)c3-c3ccncc3)n2)cc1 [Example 92]    158
Fc1ccc(F)c(-c2nc(-c3cnn(C4CCCCC4)c3-c3ccccc3)no2)c1 [Example 57]    49

Q: # lookup: EC50 of Cc1c(-c2nc(-c3cc(F)ccc3F)no2)cnn1-c1ccccc1F [Example 60]
A: 320

* * *

Target: S1P1 (Homo sapiens (Human), UniProt P21453)
Sequence (P21453 whole entry, species assumed): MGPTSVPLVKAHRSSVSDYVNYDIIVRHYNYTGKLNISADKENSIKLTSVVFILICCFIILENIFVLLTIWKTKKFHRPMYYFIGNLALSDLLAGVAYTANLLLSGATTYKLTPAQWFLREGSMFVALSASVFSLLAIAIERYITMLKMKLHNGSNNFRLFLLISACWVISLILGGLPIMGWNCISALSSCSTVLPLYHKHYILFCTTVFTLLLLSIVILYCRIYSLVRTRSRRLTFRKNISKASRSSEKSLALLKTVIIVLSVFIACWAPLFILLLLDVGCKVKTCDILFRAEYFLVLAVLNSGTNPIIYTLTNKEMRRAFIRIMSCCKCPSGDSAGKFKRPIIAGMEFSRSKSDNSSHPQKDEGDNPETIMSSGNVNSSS
Assay: 35S-GTPγS binding, membranes from CHO cells expressing S1P1
Conditions: CHO cell membranes
Where a name gives a salt, the structure may show the parent alone.
# pEC50 listing for each entry below
On this scale, pEC50 is minus log10 of a concentration expressed in M (mol/L).

For orientation, consider the following solved cases.
C[C@H]1CCCC[C@@H]1n1ncc(-c2nc(-c3cc(F)ccc3F)no2)c1-c1ccccc1    7.59
CCCn1ncc(-c2nc(-c3cc(F)ccc3F)no2)c1-c1ccccc1    6.70
COCc1c(-c2nc(-c3ccc(CN4CC(O)C4)cc3)no2)cnn1C1CCCCC1    7.52

With those in mind, consider the next compound.
Q: # lookup: pEC50 of O=C(O)C1CN(Cc2ccc(-c3noc(-c4cnn(CCc5ccccc5)c4-c4ccncc4)n3)cc2)C1 [Example 110, formate]
A: 7.40

* * *

Target: S1P1 (Homo sapiens (Human), UniProt P21453)
pKi: −log10 of the molar value.
Cut-off 7 on pKi, inclusive. At or above means label 1; below means label 0.

O=C(O)C1CN(Cc2ccc(-c3noc(-c4cnn(C5CCCCC5)c4C4CCOCC4)n3)cc2)C1    label 1
COCc1c(-c2nc(-c3ccc(CCC(=O)O)cc3)no2)cnn1C1CCCCC1    label 0

Q: Dear colleague, could you confirm whether Fc1ccc(-n2ncc(-c3nc(-c4cc(F)ccc4F)no3)c2-c2ccccc2)cc1 has pKi at or above 7?
A: label 1

Q: Dear colleague, could you confirm whether CS(=O)(=O)c1cccc(-c2noc(-c3cnn(-c4ccccc4F)c3-c3ccncc3)n2)c1 has pKi at or above 7?
A: label 1

Q: Dear colleague, could you confirm whether COCc1c(-c2nc(-c3ccc(/C=C/C(=O)O)cc3)no2)cnn1C1CCCCC1 has pKi at or above 7?
A: label 0

Q: Dear colleague, could you confirm whether COCc1c(-c2nc(-c3cccc(COCC(=O)O)c3)no2)cnn1C1CCCCC1 [Example 143] has pKi at or above 7?
A: label 1

Q: Dear colleague, could you confirm whether COCc1c(-c2nc(-c3cccc(OCCCC(=O)O)c3)no2)cnn1C1CCCCC1 has pKi at or above 7?
A: label 1

Q: Dear colleague, could you confirm whether CCOC(=O)Cn1ncc(-c2nc(-c3cc(F)ccc3F)no2)c1-c1ccccc1 has pKi at or above 7?
A: label 1

* * *

Biological target: S1P1 (Homo sapiens (Human), UniProt P21453)
Assay: 35S-GTPγS binding, membranes from CHO cells expressing S1P1
Conditions: CHO cell membranes
Structures can show the parent of a compound that is named as a salt.
# pEC50 listing for each entry below
On this scale, pEC50 is minus log10 of a concentration expressed in M (mol/L).

COCCNCc1ccc(-c2noc(-c3cnn(C4CCCCC4)c3-c3ccncc3)n2)cc1 [Example 78]    7.17
Fc1ccccc1-c1nc(-c2cnn(C3CCCCC3)c2-c2ccccc2)no1 [Example 52]    6.50
Cc1ccccc1-n1ncc(-c2nc(-c3cc(F)ccc3F)no2)c1-c1ccccc1 [Example 5]    6.59
COCc1c(-c2nc(-c3ccc(CN(C)CC(=O)O)cc3)no2)cnn1C1CCCCC1 [Example 72]    6.92
Fc1ccc(F)c(-c2noc(-c3cnn(C4CCCC4)c3-c3ccncc3)n2)c1 [Example 30]    7.70

Q: # lookup: pEC50 of CNCc1ccc(-c2noc(-c3cnn(CC(C)C)c3-c3ccncc3)n2)cc1 [Example 85]
A: 6.75

Q: # lookup: pEC50 of c1cc(-c2c(-c3nc(-c4ccc5nccn5c4)no3)cnn2C2CCCCC2)ccn1 [Example 95]
A: 7.02

Q: # lookup: pEC50 of COCc1c(-c2nc(-c3ccc(CN4CC(C(=O)O)C4)cc3)no2)cnn1C1CCCCC1 [Example 68]
A: 9.52

Q: # lookup: pEC50 of CC1CCCCC1n1ncc(-c2nc(-c3cc(F)ccc3F)no2)c1-c1ccncc1 (stereo not shown) [Example 34]
A: 8.22

Q: # lookup: pEC50 of CC(C)Cn1cc(-c2nc(-c3cc(F)ccc3F)no2)c(-c2ccccc2)n1 [Example 7]
A: 6.54

Q: # lookup: pEC50 of O=C(O)C1CCN(Cc2ccc(-c3noc(-c4cnn(C5CCCCC5)c4C4CCOCC4)n3)cc2)CC1 [Example 132]
A: 7.74

Q: # lookup: pEC50 of Cc1nn(C2CCCCC2)cc1-c1nc(-c2cc(F)ccc2F)no1 [Example 83]
A: 6.50

Q: # lookup: pEC50 of COCc1c(-c2nc(-c3ccc(CCNC(C)C)cc3)no2)cnn1C1CCCCC1 [Example 128, formate]
A: 6.80

Q: # lookup: pEC50 of CN(C)Cc1ccc(-c2noc(-c3cnn(C4CCCCC4)c3-c3ccncc3)n2)cc1 [Example 41]
A: 8.05

* * *

Biological target: S1P1 (Homo sapiens (Human))
Assay: 35S-GTPγS binding, membranes from CHO cells expressing S1P1
Settings: CHO cell membranes
pEC50: −log10 of the molar value.
Cut-off 7 on pEC50, inclusive. At or above means t; below means f.

CN(CC(=O)O)Cc1ccc(-c2noc(-c3cnn(C4CCCCC4)c3-c3ccncc3)n2)cc1    t
OCc1ccc(-c2noc(-c3cnn(CC4CC4)c3-c3ccncc3)n2)cc1    f
CC(C)Cn1ncc(-c2nc(-c3cccc(C(F)(F)F)c3)no2)c1-c1ccncc1    t
FC(F)(F)c1cccc(-c2noc(-c3cnn(CC4CC4)c3-c3ccncc3)n2)c1    t
CC(C)Cn1ncc(-c2nc(-c3ccc(CN4CC(C(=O)O)C4)cc3)no2)c1-c1ccncc1    t

Please look at the following molecule next.
Q: Dear colleague, could you confirm whether COCc1c(-c2nc(-c3ccc(CNCCC(=O)O)cc3)no2)cnn1C1CCCCC1 has pEC50 at or above 7?
A: t

* * *

Molecular target: S1P1 (Homo sapiens (Human))
Experiment: 35S-GTPγS binding, membranes from CHO cells expressing S1P1
Conditions: CHO cell membranes
# pEC50 listing for each entry below
On this scale, pEC50 is minus log10 of a concentration expressed in M (mol/L).

Q: # lookup: pEC50 of COCc1c(-c2nc(-c3ccc(CN4CCC(O)C4)cc3)no2)cnn1C1CCCCC1 (stereo not drawn)
A: 7.07

Q: # lookup: pEC50 of CCc1c(-c2nc(-c3cc(F)ccc3F)no2)cnn1CC(C)C
A: 6.11

Q: # lookup: pEC50 of Fc1ccc(F)c(-c2noc(-c3cnn(CCc4ccccc4)c3-c3ccncc3)n2)c1
A: 6.30

Q: # lookup: pEC50 of CC(C)Cn1ncc(-c2nc(-c3cc(F)ccc3F)no2)c1C1CCOCC1
A: 6.74

Q: # lookup: pEC50 of CNCc1ccc(-c2noc(-c3cnn(C4CCCCC4)c3-c3ccncc3)n2)cc1
A: 7.62

* * *

Molecular target: S1P3 (Homo sapiens (Human), UniProt Q99500)
Test: 35S-GTPγS binding, membranes from CHO cells expressing S1P3
Conditions: CHO cell membranes
measurement label: pEC50
On this scale, pEC50 is minus log10 of a concentration expressed in M (mol/L).

For orientation, consider the following solved cases.
c1cc(-c2c(-c3nc(-c4ccc(Cn5cncn5)cc4)no3)cnn2C2CCCCC2)ccn1    6.83
O=C(O)C1CCN(Cc2ccc(-c3noc(-c4cnn(C5CCCCC5)c4C4CCCO4)n3)cc2)CC1 (stereo not drawn)    6.37
O=C(O)CCNCc1ccc(-c2noc(-c3cnn(C4CCCCC4)c3C3CCOCC3)n2)cc1    6.67

Q: # lookup: pEC50 of O=C(O)C1CN(Cc2ccc(-c3noc(-c4cnn(C5CCCCC5)c4-c4ccncc4)n3)cc2)C1
A: 5.99

Q: # lookup: pEC50 of c1cc(-c2c(-c3nc(-c4ccc5[nH]ncc5c4)no3)cnn2C2CCCCC2)ccn1
A: 6.32

Q: # lookup: pEC50 of CC(C)Cn1ncc(-c2nc(-c3ccc4[nH]ncc4c3)no2)c1-c1ccncc1
A: 6.28

Q: # lookup: pEC50 of c1cc(-c2c(-c3nc(-c4ccc(Cn5ccnc5)cc4)no3)cnn2C2CCCCC2)ccn1
A: 7.23
